Tested on: A498 renal
test summary: NCI tumour cell line growth inhibition, 48 h
measured attribute: TGI

[Q] Need TGI of Nc1nc2nc[nH]c2c(=O)[nH]1 , thanks.
[A] > 100 µM

[Q] Now give it for CCOP(=O)(C=C=C(C)C)OCC too.
[A] > 100 µM

[Q] Now give it for COc1ccc([C@H]2CC(=O)NCCCCN2)cc1 too.
[A] > 100 µM

[Q] Now give it for FC(F)(Sc1ccccc1)c1nc2ccccc2o1 too.
[A] > 100 µM

[Q] Now give it for Nc1ccn(C2CC(CO)C(O)C2O)c(=O)n1 (configuration not stated) too.
[A] > 57.7 µM

[Q] Now give it for CN(C)c1ccc(/C=C(\NC(=O)c2ccccc2)C2NC(Cc3c[nH]c4ccccc34)C(=O)O2)cc1 (configuration not stated) too.
[A] > 100 µM

[Q] Now give it for C[C@@]12CCC(=O)C=C1CC[C@H]1C2=CC[C@]2(C)C1CC[C@@]2(C)O (some centres not stated) too.
[A] > 100 µM

[Q] Now give it for O=C(NO)C12C3C4C1C1C2C3C41C(=O)NO (configuration not stated) too.
[A] > 100 µM

[Q] Now give it for CCOC(=O)CCC(NC(=O)c1ccc(Nc2nc3ccccc3nc2-c2cccs2)cc1)C(=O)OCC (configuration not stated) too.
[A] > 100 µM
